# Measured Target: GPR120 (Homo sapiens)
# Sequence (Q5NUL3 whole entry, species assumed): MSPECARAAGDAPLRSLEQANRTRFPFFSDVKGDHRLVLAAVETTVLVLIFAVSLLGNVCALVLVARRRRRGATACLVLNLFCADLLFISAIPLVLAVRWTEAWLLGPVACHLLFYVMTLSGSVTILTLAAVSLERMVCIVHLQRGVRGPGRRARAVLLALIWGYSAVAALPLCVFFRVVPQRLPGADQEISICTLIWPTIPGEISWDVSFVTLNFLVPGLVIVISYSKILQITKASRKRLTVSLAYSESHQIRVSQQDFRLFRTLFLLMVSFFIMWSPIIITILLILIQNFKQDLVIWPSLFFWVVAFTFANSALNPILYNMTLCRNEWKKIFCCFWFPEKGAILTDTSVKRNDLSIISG
# Protocol Description: BRET saturation experiment of probe N1
# Set-up: expressed in transfected cells
# Reported Conditions: 15 μM GSK134647A for non-specific binding
Measurement Kind: Kd (µM)

> print(dat)
                                  structure        measured.target  numeric.value
1  Cc1cc(C)c(NS(=O)(=O)c2ccc(NCCN3C(=O)c4cccc5c(N(C)C)ccc(c45)C3=O)cc2)c(C)c1  GPR120 (Homo sapiens)           1.12
